Origin of values: patent US20120128661A1

Entries and their OD450 values follow.
- TEST TARGET: T1, recombinant Fc-KAAG1 fusion protein (full-length human KAAG1 fused to human Fc, from pYD5-0447 in 293E cells) (human, UniProt Q9UBP8 1-84, biotinylated with NHS-biotin for the ELISA (sites not given))
- T1 construct: Order of parts follows the printed name Fc-KAAG1; also called recombinant KAAG1; not shown: its limits and the linker to KAAG
- T1 sequence: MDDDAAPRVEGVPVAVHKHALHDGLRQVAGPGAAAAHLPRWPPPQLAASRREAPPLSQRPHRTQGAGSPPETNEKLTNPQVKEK
- MEASUREMENT NOTES: ELISA, 1 ng Fab/well on Fc-KAAG1 [D00012 Figure 7C]
A number alone suffices; assume OD450.

# input Entry 3D3 mouse anti-KAAG1 Fab (Fab, V domains shown, Recombinant mouse Fab made in E. coli; also called 3D3 Fab) VH: EVQLQQSVAELVRPGASVTLSCKASGYIFTDYEIHWVKQTPVHGLEWIGVIDPETGNTAFNQKFKGKATLTADISSSTAYMELSSLTSEDSAVYYCMGYSDYWGQGTTLTVSS VL: DIVMTQSPSSLAVSIGQKVTMNCKSSQSLLNSNFQKNFLAWYQQKPGQSPKLLIYFASTRESSIPDRFIGSGSGTDFTLTISSVQAEDLADYFCQQHYSTPLTFGAGTKLELK : reported OD450 = ?
# output 1.21

# input Requested field: OD450. Item: 3C4 mouse anti-KAAG1 Fab (Fab, V domains shown, Recombinant mouse Fab made in E. coli; also called 3C4 Fab) VH: EVQLQESGPDLVKPSQSLSLTCTVTGFSITSGYGWHWIRQFPGNKLEWMGYINYDGHNDYNPSLKSRISITQDTSKNQFFLQLNSVTTEDTATYYCASSYDGLFAYWGQGTLVTVSA VL: DIVMSQSPSSMYASLGERVTITCKASQDIHNFLNWFQQKPGKSPKTLIFRANRLVDGVPSRFSGSGSGQDYSLTISSLEFEDLGIYSCLQYDEIPLTFGAGTKLELR
# output 0.25

# input Entry anti-KAAG1 Fab of well E10 (plate from Omniclonal library #3) (Fab, V domains shown) VH: EVQLQQSGPELVKPGASVKISCKASGDTFTDYYMNWVKQSHGKSLEWIGDINPNYGGITYNQKFKGKATLTVDTSSSTAYMELRGLTSEDSAVYYCQAYYRNSDYWGQGTTLTVSS VL: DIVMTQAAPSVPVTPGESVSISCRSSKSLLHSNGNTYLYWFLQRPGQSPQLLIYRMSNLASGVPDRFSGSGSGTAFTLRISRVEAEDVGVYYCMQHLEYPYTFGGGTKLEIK : reported OD450 = ?
# output 0.02

# input Would you kindly share the measured OD450 for G12 (Fab, V domains shown) VH: EVQLQQSVAELVRPGASVTVSCKASGYIFTDYEIHWVKQTPAHGLEWIGVIDPETGNTAFNQKFKGKATLTADISSSTAYMELSSLTSEDSAVYYCMGYSDYWGQGTTLTVSS VL: DIVMTQSPKFMSTSVGDRVSITCKASQDVGTAVAWYQQKPGQSPELLIYWTSTRHTGVPDRFSGSGSGTDFTLTISSVQAEDLADYFCQQHYSIPLTFGAGTKLELR ?
# output 1.38
